Where do the numbers come from? From patent US11344510B2.

- Test summary: Oral bioavailability in mice, Method A
- Type: in vivo
- Condition info: male, mouse, brain, CD-1 mice, 10 mg/kg po, read-out: t1/2 (po)
Counter-ions that a name gives are not always drawn.
Collected half-life values appear next to each entry.
Numbers only here, please. The scale is min.

Answered cases to consult:
[[record]]
molecule = "CNC1(c2ccccc2)CCCCC1=O (racemic) [Compound 14rac, hydrochloride]"
quantity_unit = "min"
numeric_value = 39.4

[[record]]
molecule = "CN[C@]1(c2ccccc2)CCCCC1=O [Compound 14S]"
quantity_unit = "min"
numeric_value = 104

[[record]]
molecule = "CNC1(c2ccccc2F)CCCCC1=O (racemic) [Compound 35rac]"
quantity_unit = "min"
numeric_value = 19.1

[[record]]
molecule = "CN[C@@]1(c2ccccc2)CCCCC1=O [Compound 14R]"
quantity_unit = "min"
numeric_value = 44.1

[[record]]
molecule = "CCNC1(c2cccc(OC)c2)CCCCC1=O (racemic) [Compound 2rac]"
quantity_unit = "min"
numeric_value = 16.6


Note: attention shifts to another entry.
Inquiry: Report measured half-life; entry is CNC1(c2ccccc2OC)CCCCC1=O (racemic) [Compound 4rac]
Reply text: 45.9

---

- Test summary: MLM stability (Low Activity)
- Type: in vitro ADME, CD-1 mice
- Condition info: male, CD-1, mouse, liver microsomes, pH 7.4, Condition 1 (Low Activity), 0.50 mg protein/mL
Form field: microsomal CLint at 1 μM (one value per entry).
Write it as a number; the unit µL/min/mg goes unstated.

Would you please look over these solved cases?
[[record]]
compound = "CCN(CC)[C@@]1(c2ccccc2)CCCCC1=O [Compound 25R]"
measure_name = "microsomal CLint at 1 μM"
numeric_value = 163

[[record]]
compound = "O=C1CCCC[C@@]1(c1ccccc1)N1CCOCC1 [Compound 31S]"
measure_name = "microsomal CLint at 1 μM"
numeric_value = 128

[[record]]
compound = "CC(C)N[C@]1(c2ccccc2)CCCCC1=O [Compound 28S]"
measure_name = "microsomal CLint at 1 μM"
numeric_value = 94

[[record]]
compound = "CC1CN(C2(c3ccccc3)CCCCC2=O)C1 (racemic) [Compound 129rac]"
measure_name = "microsomal CLint at 1 μM"
numeric_value = 149

[[record]]
compound = "O=C1CCCC[C@]1(c1ccccc1)N1CCCC1 [Compound 27R]"
measure_name = "microsomal CLint at 1 μM"
numeric_value = 34.3

[[record]]
compound = "Cc1cccc(C2(N)CCCCC2=O)c1 (racemic) [Compound 118rac, 2-amino-2-(m-tolyl)cyclohexan-1-one]"
measure_name = "microsomal CLint at 1 μM"
numeric_value = 16.4


Let's switch to this compound now.
Inquiry: Indicate the recorded microsomal CLint at 1 μM value for this compound: Cc1ccccc1[C@@]1(N)CCCCC1=O [Compound 114S, (S)-2-amino-2-(o-tolyl)cyclohexan-1-one]
Reply text: 17.1

---

- Test summary: HLM stability (Low Activity)
- Format: in vitro ADME
- Condition info: both sexes, human, liver microsomes, pH 7.4, Condition 1 (Low Activity), 0.42 mg protein/mL
Counter-ions that a name gives are not always drawn.
Listed here: items and their measured log10(half-life at 2 μM).
Reminder: these figures are log10 of reported half-life at 2 μM, in h before transformation.

[[record]]
compound = "CNC1(c2ccccc2OC)CCCCC1=O (racemic) [Compound 4rac]"
measure_name = "log10(half-life at 2 μM)"
numeric_value = 1.64

[[record]]
compound = "CNC1(c2ccccc2Cl)CCCCC1=O (racemic) [rac-ketamine, racemic ketamine, reference compound]"
measure_name = "log10(half-life at 2 μM)"
numeric_value = 0.12

[[record]]
compound = "CNC1(c2ccccc2F)CCCCC1=O (racemic) [Compound 35rac]"
measure_name = "log10(half-life at 2 μM)"
numeric_value = 0.45

[[record]]
compound = "NC1(c2ccccc2Cl)CCCCC1=O (racemic) [Compound 78rac]"
measure_name = "log10(half-life at 2 μM)"
numeric_value = 0.63

[[record]]
compound = "CCNC1(c2cccc(OC)c2)CCCCC1=O (racemic) [Compound 2rac]"
measure_name = "log10(half-life at 2 μM)"
numeric_value = 0.69

[[record]]
compound = "CNC1(c2cccc(OC)c2)CCCCC1=O (racemic) [Compound 3rac]"
measure_name = "log10(half-life at 2 μM)"
numeric_value = 0.16

[[record]]
compound = "CCNC1(c2ccccc2)CCCCC1=O (racemic) [Compound 1rac]"
measure_name = "log10(half-life at 2 μM)"
numeric_value = 0.35

[[record]]
compound = "CNC1(c2ccccc2)CCCCC1=O (racemic) [Compound 14rac, hydrochloride]"
measure_name = "log10(half-life at 2 μM)"
numeric_value = 0.74


Turning now to a further compound:
Inquiry: Provide log10(half-life at 2 μM) value for the following compound: NC1(c2ccccc2)CCCCC1=O (racemic) [Compound 11rac, 2-amino-2-phenyl-cyclohexan-1-one]
Reply text: 1.13

---

- Test summary: Oral bioavailability in mice, Method A
- Type: in vivo
- Condition info: brain, CD-1 mice, 10 mg/kg iv
Where a name gives a salt, the structure may show the parent alone.
Measure name: AUC0-inf (iv)

Sample records with AUC0-inf (iv):
[[record]]
compound = "CCNC1(c2cccc(OC)c2)CCCCC1=O (racemic)"
result = "279,000 ng*min/g"

[[record]]
compound = "CN[C@]1(c2ccccc2)CCCCC1=O [Compound 14S]"
result = "507,000 ng*min/g"

[[record]]
compound = "CNC1(c2ccccc2OC)CCCCC1=O (racemic)"
result = "292,000 ng*min/g"

[[record]]
compound = "CNC1(c2ccccc2)CCCCC1=O (racemic) [Compound 14rac, hydrochloride]"
result = "457,000 ng*min/g"

[[record]]
compound = "CN[C@@]1(c2ccccc2)CCCCC1=O [Compound 14R]"
result = "548,000 ng*min/g"

[[record]]
compound = "CNC1(c2ccccc2F)CCCCC1=O (racemic)"
result = "186,000 ng*min/g"


Inquiry: Return the recorded AUC0-inf (iv) value; entry: CNC1(c2ccccc2Cl)CCCCC1=O (racemic) [rac-ketamine, racemic ketamine, reference compound]
Reply text: 97,000 ng*min/g

---

- Test summary: Oral bioavailability in rats, Method A
- Type: in vivo
- Condition info: male, rat, plasma, Sprague Dawley rats, 10 mg/kg iv, read-out: AUC0-last (iv) (converted)
Measure name: AUC(0-t) (ng·h/mL)
Entry rule: numbers only, all in ng·h/mL.

Inquiry: Let me know recorded AUC(0-t) for CNC1(c2ccccc2Cl)CCCCC1=O (racemic) [rac-ketamine, racemic ketamine, reference compound] , thanks.
Reply text: 1340

---

- Tested system: MK-801 binding site of the N-methyl-D-aspartate receptor (NMDAR)
- Test summary: NMDAR radioligand binding with [3H]MK-801, Method A
- Set-up: species or system Wistar rat
- Condition info: MK-801 site, Method A, Wistar rat brain (minus cerebellum), 5.0 nM [3H]MK-801; read-out: NMDAR Ki ± SEM
Counter-ions that a name gives are not always drawn.
Listed below: pKi values for each entry.
Here pKi is given on a logarithmic scale as minus log10 of the concentration in mol/L.

Below, 5 compounds whose answers are already recorded.
[[record]]
compound = "CNC1(c2ccccc2)CCCCC1=O (racemic) [Compound 14rac, hydrochloride]"
numeric_value = 6.12

[[record]]
compound = "CN[C@@]1(c2ccccc2F)CCCCC1=O [Compound 35R]"
numeric_value = 5.41

[[record]]
compound = "CCNC1(c2ccccc2)CCCCC1=O (racemic) [Compound 1rac]"
numeric_value = 6.52

[[record]]
compound = "CNC1(c2ccccc2F)CCCCC1=O (racemic) [Compound 35rac]"
numeric_value = 5.74

[[record]]
compound = "NC1(c2ccccc2)CCCCC1=O (racemic) [Compound 11rac, 2-amino-2-phenyl-cyclohexan-1-one]"
numeric_value = 5.85


Inquiry: // fetch pKi given entry CNC1(c2cccc(OC)c2)CCCCC1=O (racemic) [Compound 3rac]
Reply text: 6.00

---

- Test summary: HLM stability (High Activity)
- Format: in vitro ADME
- Condition info: both sexes, human, liver microsomes, pH 7.4, Condition 2 (High Activity), 1.0 mg protein/mL
Measure name: microsomal CLint at 1 μM (µL/min/mg)
Respond numerically; units are µL/min/mg and should not be typed.

[[record]]
molecule = "CN[C@]1(c2ccccc2)CCCCC1=O [Compound 14S]"
numeric_value = 2

[[record]]
molecule = "CN[C@]1(c2cccc(F)c2)CCCCC1=O [Compound 19S]"
numeric_value = 7

[[record]]
molecule = "O=C1CCCCC1(c1ccccc1)N1CCCC1 (racemic) [Compound 27rac]"
numeric_value = 3

[[record]]
molecule = "CNC1(c2ccccc2Cl)CCCCC1=O (racemic) [rac-ketamine, racemic ketamine, reference compound]"
numeric_value = 19

[[record]]
molecule = "COCCNC1(c2ccccc2)CCCCC1=O (racemic) [Compound 29rac]"
numeric_value = 5

[[record]]
molecule = "CNC1(c2ccccc2OC)CCCCC1=O (racemic) [Compound 4rac]"
numeric_value = 1


Inquiry: Give reported microsomal CLint at 1 μM value for NC1(c2ccccc2Cl)CCCCC1=O (racemic) [Compound 78rac]
Reply text: 4

Inquiry: Output measured microsomal CLint at 1 μM for this item: O=C1CCCC[C@]1(NCCF)c1ccccc1 [Compound 86S]
Reply text: 11

Inquiry: # return recorded microsomal CLint at 1 μM for input CN[C@@]1(c2ccccc2)CCCCC1=O [Compound 14R]
Reply text: 1

Inquiry: Give the value of microsomal CLint at 1 μM reported for the following: CN[C@@]1(c2cccc(F)c2)CCCCC1=O [Compound 19R]
Reply text: 5
